pIC50: −log10 of the molar value.
Below are pIC50 measurements against PIK3CD (Human) drawn from the literature.
Observed property: pIC50

Known pIC50 results, listed for orientation:
[[record]]
molecule = "N#Cc1cc2cnc(Nc3ccc4c(c3)CCNC4)nc2n(C2CCC(F)(F)C2)c1=O (stereo not drawn)"
observed_property = "pIC50"
measured_result = 5.79

[[record]]
molecule = "COc1ncc(-c2nc(N3CCOCC3)nc3c(CN4CCN(C(=O)C(F)(F)F)CC4)c(C)sc23)cc1NS(=O)(=O)C1CC1"
observed_property = "pIC50"
measured_result = 7.82

[[record]]
molecule = "CC(F)CN(C)[C@H]1CC[C@H](CNc2nc(N3CCOCC3)cc(-n3c(C(F)F)nc4ccccc43)n2)CC1 (stereo partly drawn)"
observed_property = "pIC50"
measured_result = 8.07

[[record]]
molecule = "COc1ncc(-c2nc(N3CCOCC3)nc3c(CN4CCN(C5COC5)CC4)csc23)cc1NS(C)(=O)=O"
observed_property = "pIC50"
measured_result = 8.16

[[record]]
molecule = "CC1(C)NCCc2cc(Nc3ncc4cc(C#N)c(=O)n(C5CCCC5)c4n3)ccc21"
observed_property = "pIC50"
measured_result = 6.14


I. Cc1ccc2c(c1)C(=O)N(C)c1cnc(Nc3cccc(S(N)(=O)=O)c3)nc1N2C
II. [2H]C([2H])([2H])C(c1nccc(-c2sc(NC(=O)N3CC[C@@H](C)[C@H]3C(N)=O)nc2C)n1)(C([2H])([2H])[2H])C([2H])([2H])[2H]
[Q] Could you check which of I and II has a smaller value for pIC50? Mark your selection by writing its label.
[A] I

----------
Below are IC50 measurements against PIK3CD (Human) (UniProt O00329) drawn from the literature.
Observed property: IC50 (µM)

[[record]]
compound = "CNC1CCN(Cc2c(C)sc3c(-c4cnc(OC)c(NS(C)(=O)=O)c4)nc(N4CCOCC4)nc23)CC1"
measurement_unit = "µM"
measured_result = 0.071

[[record]]
compound = "Cc1noc2nc(Cn3cnc4c(N)ncnc43)n(-c3ccccc3)c(=O)c12"
measurement_unit = "µM"
measured_result = 6.4

[[record]]
compound = "COC(=O)C1CCN(Cc2c(C)sc3c(-c4cnc(OC)c(NS(C)(=O)=O)c4)nc(N4CCOCC4)nc23)CC1"
measurement_unit = "µM"
measured_result = 0.0065

[[record]]
compound = "CN(CC(C)(C)O)[C@H]1CC[C@H](CNc2cc(-n3c(C(F)F)nc4ccccc43)nc(N3CCOCC3)n2)CC1"
measurement_unit = "µM"
measured_result = 0.014


1. CC(=O)N1CCC(N2CCC(CNc3nc(N4CCOCC4)cc(-n4c(C(F)F)nc5ccccc54)n3)CC2)CC1
2. COC[C@H](Nc1ccc2c(c1)OCCn1cc(N3C(=O)OC[C@H]3CC#N)nc1-2)C(N)=O
3. COc1ncc(-c2nc(N3CCOCC3)nc3c(CN4CCC(C(C)(C)O)CC4)cc(F)cc23)cc1NS(C)(=O)=O
4. Cc1cn(-c2nc(N3CCOCC3)nc3c(CN4CCN(C(=O)C(C)C)CC4)csc23)c(C)n1
[Q] Put these in order: smallest IC50 first, largest last. Order the labels as requested and list them.
[A] 3, 1, 4, 2

----------
Below are pIC50 measurements against PIK3CD (Human) (UniProt O00329) drawn from the literature.
pIC50: −log10 of the molar value.
Observed property: pIC50

[[record]]
molecule = "COC[C@@H]1CCCN1C1CCC(CNc2nc(N3CCOCC3)cc(-n3c(C(F)F)nc4ccccc43)n2)CC1 (stereo partly drawn)"
target_under_test = "PIK3CD (Human) (UniProt O00329)"
observed_property = "pIC50"
measured_result = 7.89

[[record]]
molecule = "FC(F)c1nc2ccccc2n1-c1nc(N[C@H]2CC[C@H](N3CCOCC3)CC2)nc(N2CCOCC2)n1"
target_under_test = "PIK3CD (Human) (UniProt O00329)"
observed_property = "pIC50"
measured_result = 8.15

[[record]]
molecule = "CN(C)CC(=O)N1CCC(n2cc(Nc3ncc4cc(C#N)c(=O)n(C5CCCC5)c4n3)cn2)CC1"
target_under_test = "PIK3CD (Human) (UniProt O00329)"
observed_property = "pIC50"
measured_result = 7.41


I. O=C(CO)N1CCN(Cc2csc3c(-c4cccc5[nH]ncc45)nc(N4CCOCC4)nc23)CC1
II. C=CC(=O)Nc1ccc(NS(=O)(=O)c2cccc(Nc3ncc4c(n3)N(C)c3ccc(C)cc3C(=O)N4C)c2)cc1
III. C#CCN[C@H]1CC[C@H](CNc2nc(N3CCOCC3)cc(-n3c(C(F)F)nc4ccccc43)n2)CC1
IV. CC(C)Oc1ccc(-c2nn([C@@H](C)c3nc4ccccc4c(=O)n3-c3ccccc3)c3ncnc(N)c23)cc1F
[Q] Put these in order: smallest pIC50 first, largest last. Order the labels as requested and list them.
[A] I, II, III, IV
